# testedTarget: T1, Cynomolgus monkey serum albumin (CSA) (cynomolgus monkey, UniProt A2V9Z4 25-608)
# T1 construct: Bought protein (Abcam); also called cynomolgus monkey albumin
# T1 sequence (A2V9Z4 25-608): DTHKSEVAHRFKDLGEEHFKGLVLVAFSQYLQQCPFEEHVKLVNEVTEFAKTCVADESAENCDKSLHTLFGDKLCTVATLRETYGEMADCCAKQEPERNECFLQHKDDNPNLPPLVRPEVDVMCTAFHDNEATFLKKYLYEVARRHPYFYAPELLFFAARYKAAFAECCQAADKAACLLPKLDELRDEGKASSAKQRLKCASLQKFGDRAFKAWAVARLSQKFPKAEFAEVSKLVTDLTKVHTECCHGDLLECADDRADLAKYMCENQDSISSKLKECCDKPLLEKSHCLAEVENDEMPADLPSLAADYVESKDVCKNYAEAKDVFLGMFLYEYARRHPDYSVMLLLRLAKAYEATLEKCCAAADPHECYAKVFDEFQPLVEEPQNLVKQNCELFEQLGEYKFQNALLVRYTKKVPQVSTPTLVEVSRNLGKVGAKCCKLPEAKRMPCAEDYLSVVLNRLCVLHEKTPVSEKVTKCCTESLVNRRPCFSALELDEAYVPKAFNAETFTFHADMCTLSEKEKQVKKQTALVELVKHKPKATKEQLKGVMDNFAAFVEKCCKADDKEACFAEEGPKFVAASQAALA
# protocolText: ELISA on coated cynomolgus monkey albumin, anti-human Fc HRP, A650, one site-total binding fit
Recorded Kd, one value per entry.
valueType: Kd (nM)

>>> numericresult("4A01v3-3 (Fc fusion, not shown: a dimerising Fc or GST; small tags and cut ends, also called Hz4A01v3-3) VHH: EVQLVESGGGEVQPGGSLRLSCAASGFAFSTSGMAWVRQAPGKGLEWVSTISDDARIIRYAESVKGRFTISRDNAKNTLYLQMNSLRAEDTAVYYCATYRAGSRIGSYEDYYRGQGTLVTVKP")
0.142
>>> numericresult("4A01v9 (Fc fusion, not shown: a dimerising Fc or GST; small tags and cut ends, also called Hz4A01v9) VHH: EVQLVESGGGEVQPGGSLRLSCAASGFAFSTSGMVWVRQAPGKGLEWVSTISDDTRIIRYAESVKGRFTISRDNAKNTLYLQMNSLRAEDTAVYYCATYRAGSRIGSYEDYYRGQGTLVTVKP")
0.117
>>> numericresult("4A01-NNT-hFc (Fc fusion, Monomeric sdAb-Fc fusion (Fc S364N, Y407N, K409T = NNT); also called 1m4A01; anti-albumin sdAb 4A01) QVQLQESGGGLVQPGGSLRLSCAASGFAFSTSGMVWVRQATGKGLEWVSTISDDSRIIRYADSVNGRFTISRDNAENTLYLLMNSLKPEDTAVYYCATYRAGSRIGSYEDYYRGQGTQVTVSSGGPSVFLFPPKPKDTLMISRTPEVTCVVVDVSHEDPEVKFNWYVDGVEVHNAKTKPREEQYNSTYRVVSVLTVLHQDWLNGKEYKCKVSNKALPAPIEKTISKAKGQPREPQVYTLPPSRDELTKNQVNLTCLVKGFYPSDIAVEWESNGQPENNYKTTPPVLDSDGSFFLNSTLTVDKSRWQQGNVFSCSVMHEALHNHYTQKSLSLSPG")
0.113
>>> numericresult("4A01v3-7 (Fc fusion, also called Hz4A01v3-7; not shown: Human Fc carrier and its linker) VHH: EVQLVESGGGEVQPGGSLRLSCAASGFAFSTSGMVWVRQAPGKGLEWVSTISDDARIIRYAESVKGRFTISRDNAKNTVYLQMNSLRAEDTAVYYCATYRAGSRIGSYEDYYRGQGTLVTVKP")
0.118
>>> numericresult("4A01v3-5 (Fc fusion, also called Hz4A01v3-5; not shown: Human Fc carrier and its linker) VHH: EVQLVESGGGEVQPGGSLRLSCAASGFAFSTSGMVWYRQAPGKGLEWVSTISDDARIIRYAESVKGRFTISRDNAKNTLYLQMNSLRAEDTAVYYCATYRAGSRIGSYEDYYRGQGTLVTVKP")
0.126
>>> numericresult("4A01v3-8 (Fc fusion, also called Hz4A01v3-8; not shown: Human Fc carrier and its linker) VHH: EVQLVESGGGEVQPGGSLRLSCAASGFAFSTSGMVWVRQAPGKGLEWVSTISDDARIIRYAESVKGRFTISRDNAKNTLYLQMNSLRAEDTAVYYCATYRAGSRIGSYEDYYWGQGTLVTVKP")
0.147
>>> numericresult("4A01v3-1 (Fc fusion, not shown: a dimerising Fc or GST; small tags and cut ends, also called Hz4A01v3-1) VHH: EVQLVESGGGEVQPGGSLRLSCAASGFTFSTSGMVWVRQAPGKGLEWVSTISDDARIIRYAESVKGRFTISRDNAKNTLYLQMNSLRAEDTAVYYCATYRAGSRIGSYEDYYRGQGTLVTVKP")
0.127

Data provenance: patent US20250353911A1
